Each entry below carries its recorded log10 clearance.
species: Rattus norvegicus; conditions: hepatocytes
Description: In vitro clearance in rat in 1000000 cells
Short version: log10 scale, clearance, µL/min.

// below: answered molecules
molecule=COc1ccc([C@@H]2Sc3ccccc3N(CCN(C)C)C(=O)[C@@H]2OC(C)=O)cc1 reported_result=1.64
molecule=Cn1c(=O)c2c(ncn2C)n(C)c1=O reported_result=-0.22
molecule=C=CCN1CC[C@]23c4c5ccc(O)c4O[C@H]2C(=O)CC[C@@]3(O)[C@H]1C5 reported_result=1.74
molecule="Cc1cc(=O)n(-c2ccccc2)n1C [ANTIPYRINE]" reported_result=-0.40
molecule="COC(=O)C1=C(C#N)NC(C)=C(C(=O)OC(C)C)C1c1cccc([N+](=O)[O-])c1 (stereo unspecified)" reported_result=1.47

Field request: log10 clearance | item: C/C(=C\c1ccc(OCCN2CCOCC2)cc1)c1ccc2c(c1)C(C)(C)CCC2(C)C 0.36

====

Each entry below carries its recorded clearance.
experiment: in vivo; conditions: rat
Expressed in mL/min/kg, but write only the number.

// below: answered compounds
compound=CC(C)(C)S(=O)(=O)C[C@@H](Cc1ccccc1)C(=O)N[C@@H](Cc1cnc[nH]1)C(=O)N[C@@H](CC1CCCCC1)[C@@H](O)[C@@H](O)C1CC1 observed_property=clearance unit_of_measure=mL/min/kg reported_result=119
compound=Cn1c(=O)c2c(ncn2C)n(C)c1=O observed_property=clearance unit_of_measure=mL/min/kg reported_result=13
compound="COC(=O)C1=C(C#N)NC(C)=C(C(=O)OC(C)C)C1c1cccc([N+](=O)[O-])c1 (centres undefined)" observed_property=clearance unit_of_measure=mL/min/kg reported_result=94

Now take the following compound into account.
Field request: clearance | item: C=CCN1CC[C@]23c4c5ccc(O)c4O[C@H]2C(=O)CC[C@@]3(O)[C@H]1C5 48.8

====

Each entry below carries its recorded log10 of clearance.
experiment: clinical; settings: human, in vivo
Description: In vivo clearance in human
Short version: log10 scale, clearance, mL/min/kg.

compound="CCOC(=O)C1=C(C)NC(C)=C(C(=O)OC)C1c1cccc([N+](=O)[O-])c1 (centres undefined) [NITRENDIPINE]" reported_result=1.27
compound="Cn1c(=O)c2c(ncn2C)n(C)c1=O [CAFFEINE]" reported_result=0.30

Now take the following compound into account.
Field request: log10 of clearance | item: C=CCN1CC[C@]23c4c5ccc(O)c4O[C@H]2C(=O)CC[C@@]3(O)[C@H]1C5 [NALOXONE] 1.40

====

organism: Homo sapiens; settings: hepatocytes
Description: In vitro clearance in human in 1000000 cells
Friendly reminder: clearance below 1 µL/min is yes, at or above is no.

Examples from the recorded data:
compound=CC(C)(C)S(=O)(=O)C[C@@H](Cc1ccccc1)C(=O)N[C@@H](Cc1cnc[nH]1)C(=O)N[C@@H](CC1CCCCC1)[C@@H](O)[C@@H](O)C1CC1 qualitative_label=no
compound=Cc1ncc2n1-c1ccc(Cl)cc1C(c1ccccc1F)=NC2 qualitative_label=no
compound="COC(=O)C1=C(C#N)NC(C)=C(C(=O)OC(C)C)C1c1cccc([N+](=O)[O-])c1 (stereo not drawn)" qualitative_label=no
compound=COc1ccccc1Oc1c(NS(=O)(=O)c2ccc(C(C)(C)C)cc2)nc(-c2ncccn2)nc1OCCO qualitative_label=yes
compound="O=C1Nc2ccc(Cl)cc2C(c2ccccc2Cl)=NC1O (stereo not drawn)" qualitative_label=yes

For this compound, is clearance lower than 1 µL/min? Cc1ccc(C(=O)c2cc(O)c(O)c([N+](=O)[O-])c2)cc1 no

Now try Cn1c(=O)c2[nH]cnc2n(C)c1=O.O . yes

Now try C/C(=C\c1ccc(OCCN2CCOCC2)cc1)c1ccc2c(c1)C(C)(C)CCC2(C)C . no

The measured values listed here are drawn from ChEMBL document CHEMBL1132496.
